Molecular target: swine IgG
Experiment: ELISA, coated antigen, E. coli supernatant
Measurement Kind: absorbance at 450 nm (A450)

>>> test_value("SVG24 (VHH, not shown: large carriers) VHH: QVQLQQSGGGLVQAGGSLRLSCAASGRTFSTYNIAWFRQAPGKEREFVTAITWGSGNTYYADSVKGRFTISRDNAKNTVFLQMNSLKPDDTAVYYCAARRSLGPTMAFAYEYWGQGTQVTVSS")
0.341
>>> test_value("SVG03 (VHH, not shown: large carriers) VHH: QVQLQESGGGLVQAGGSLRLSCAASGRTFSNYVMGWFRQAPGKEREFVSAISWNGVSTFYADSVKGRFTISRDNAKNTVYLQMNSLKPEDTAVYYCAADERFVVRYNYWGQGTQVTVSS")
0.075
>>> test_value("SVG13 (VHH) VHH: QVQLQESGGGLVQPGGSLRLSCEASGFTFDDYGMSWVRQAPGKGLEWVSSLTPNGGSTYYADSVKGRFTISRDNAKNTLYLQMNSLKPEDTALYYCAKNSYYGAMDYWGKGTLVTVSS")
0.195
>>> test_value("SVG18 (VHH, not shown: large carriers) VHH: QVQLQQSGGGLVQPGGSLRLSCAASGFTFSSYAMSWVRQAPGKGLEWVSAINSGGDIISYADSVKGRFTISRDNAKNTLYLQMNSLKPEDTAVYYCAKSPIVRTYGGYDYWGQGTQVTVSS")
0.097
